Each entry below carries its recorded CC50.
experiment: Cytotoxicity against mock-infected African green monkey Vero E6 cells assessed as inhibition of cell survival after 3 days by CellTiter 96 AQueous Non-Radioactive Cell Proliferation Assay; assay type: cell-based; conditions: chlorocebus sabaeus, vero c1008, 72 h

Value of CC50 reported for the compound `COc1nc(N)ncc1-c1cn(COCCO)cn1` is 138 µM

Form field CC50, entry `Nc1nc2c(ncn2COCCO)c(=O)[nH]1` : > 1000 µM

---

The reader will find reported CC50 values listed item by item below.
assay: Cytotoxicity against mock-infected human HuH7 cells assessed as inhibition of cell survival after 2 days by CellTiter 96 AQueous Non-Radioactive Cell Proliferation Assay; type: cell-based; settings: huh-7, 48 h

{"substance smiles": "COc1nc(N)ncc1-c1cn(COCCO)cn1", "CC50": "149 µM"}

Now look at this one.
Just so you know, measured CC50 for `Nc1nc2c(ncn2COCCO)c(=O)[nH]1` came out at > 1000 µM
